Target: Dual specificity protein kinase CLK2 (Homo sapiens) (UniProt P49760);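 note: reported values are mean percent inhibition of CLK2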
Sequence (P49760 whole entry, looked up): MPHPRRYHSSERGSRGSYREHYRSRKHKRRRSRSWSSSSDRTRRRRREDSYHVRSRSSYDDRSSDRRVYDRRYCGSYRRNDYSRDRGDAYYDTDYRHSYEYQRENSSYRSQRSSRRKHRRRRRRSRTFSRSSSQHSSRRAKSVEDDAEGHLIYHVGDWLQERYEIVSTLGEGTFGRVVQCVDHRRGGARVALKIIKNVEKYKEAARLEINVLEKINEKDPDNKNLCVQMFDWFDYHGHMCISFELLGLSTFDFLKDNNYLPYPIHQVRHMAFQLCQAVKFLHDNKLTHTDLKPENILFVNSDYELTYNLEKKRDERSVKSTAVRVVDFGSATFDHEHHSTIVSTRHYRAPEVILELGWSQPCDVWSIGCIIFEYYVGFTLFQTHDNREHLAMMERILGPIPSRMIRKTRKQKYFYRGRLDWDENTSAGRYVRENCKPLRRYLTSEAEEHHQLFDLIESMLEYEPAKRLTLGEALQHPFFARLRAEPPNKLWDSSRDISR
Details: at 1 µM
Hi there, I'd appreciate the recorded inhibition for every entry that follows.
Numbers only, in %.

Consider the reported inhibition for these molecules:
- itemSmiles: "NS(=O)(=O)c1cccc(-c2cc3ccncc3cc2OCc2ccccc2)c1"
  scaleUnit: "%"
  inhibition: 1.27
- itemSmiles: "CCS(=O)(=O)c1ccc(OC)c(Nc2nccc(N(C)c3ccc4c(C)n[nH]c4c3)n2)c1"
  scaleUnit: "%"
  inhibition: 0.04

Below is a list of molecules. For each, state its recorded inhibition.
1. [O-][S+]1CCN(Cc2ccc(-c3ccc4ncnc(Nc5ccc(OCc6ccccc6)c(Cl)c5)c4c3)o2)CC1
2. O=S(=O)(CCOCc1ccc(-c2ccc3ncnc(Nc4ccc(OCc5cccc(F)c5)c(Cl)c4)c3c2)o1)c1ccccc1
3. Cc1ccc(NC(=O)CC2CC2)cc1-c1ccc(C(=O)NCC2CC2)cc1
4. Nc1nccc(-c2c(-c3ccc(F)cc3)nn3cc(C(F)(F)F)ccc23)n1
5. COC(=O)c1ccc2c(c1)C(=Cc1cc(Br)c(O)c(Br)c1)C(=O)N2
6. Cc1ccc2c(-c3ccnc(Nc4cccc(C(F)(F)F)c4)n3)c(-c3ccccc3)nn2n1
7. NS(=O)(=O)c1ccc(NC=C2C(=O)Nc3ccc4ncsc4c32)cc1

Result:
[0.49, 1.39, 0.08, -2.43, 50.1, 2.76, 80]

FYI, the data here is from ChEMBL document CHEMBL1961873.
